- method: HCT116 colon cancer cell growth inhibition, primary screen, CellTiter-Glo luminescence, NPC library (AID 1117342)
- settings: at 20 µM (top of the series)
test_readout: inhibition of viability (%)
Just the number please, in %, no unit attached.

OC(CCN1CCCC1)(c1ccccc1)C1CCCCC1 (stereo not given); 17.1
O=S(=O)(O)c1ccc2c(N=Nc3ccc(S(=O)(=O)O)c4ccccc34)c(O)c(S(=O)(=O)O)cc2c1; 2.8
CN1[C@@H]2CC[C@H]1CC(NC(=O)n1c(=O)[nH]c3ccccc31)C2 (stereo not given in full); 23.7

What does the data say about its inhibition of viability? Entry: O=C1N=C(O)CN1/N=C/c1ccc(-c2ccc([N+](=O)[O-])cc2)o1
20.3

What does the data say about its inhibition of viability? Entry: CC(=O)CCCCn1c(=O)c2c(ncn2C)n(C)c1=O
-8.4

---

- method: modulators of glucocorticoid suppression of NF-kB, cell-based, luciferase, IL-1B stimulus, dexamethasone (AID 624486)
- settings: NF-kB luciferase reporter, IL-1B + dexamethasone, luminescence; measured here: IL-1B alone, no Dex
Measured z-score, listed per entry.
Enter a number only.

Please review the entries below; each comes with its answer.
Cn1cc(C2=C(c3c[nH]c4ccccc34)C(=O)NC2=O)c2ccccc21; -1.61
NS(=O)(=O)c1ccc(NC2CC(c3cccc(O)c3)NN2)cc1 (stereo not given); -0.55
Nc1c(C(=O)c2cccc(CCS(N)(=O)=O)c2)cnn1-c1ccc(F)cc1; 0.275
Oc1cccc(-c2nc(-c3ccccc3)[nH]c2-c2ccncc2)c1; 1.75
Nc1nccc(C#Cc2cncnc2Nc2ccc(OCc3cccc(F)c3)c(Cl)c2)n1; -0.655

What does the data say about its z-score? Entry: CN1CCC(C(=O)NC2NNC3NNC(c4ccccc4)CC32)CC1 (stereo not given)
-0.385

What does the data say about its z-score? Entry: C[C@@H](Oc1cc(-n2cnc3ccc(OCC4CCN(C)CC4)cc32)sc1C(N)=O)c1ccccc1Cl
-0.185

---

- method: differential killing of epithelial or mesenchymal cells, primary screen, imaging, PC-3E GFP, TEM4-18 mCherry, co-culture (AID 1345086);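 further: cells exposed to compound for 72 h before imaging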
- settings: imaging cell counts, measured here: epithelial PC-3E GFP cell survival, at 1 µM
Categorized via normalised cell number: lower level (below 0.9), middle level (0.9 to below 1), upper level (1 or more)

Below, 3 molecules whose answers are already recorded.
CC[N+](C)(C)c1cccc(O)c1; lower level
CC(=O)CCCCn1c(=O)c2c(ncn2C)n(C)c1=O; upper level
CCCCCN=C(N)N/N=C/c1c[nH]c2ccc(OC)cc12; middle level

Class (by measured normalised cell number) for CCC(C)(C)C(=O)O[C@H]1C[C@@H](C)C=C2C=C[C@H](C)[C@H](CC[C@@H]3C[C@@H](O)CC(=O)O3)[C@H]21
lower level

Class (by measured normalised cell number) for O=C1C(CCS(=O)c2ccccc2)C(=O)N(c2ccccc2)N1c1ccccc1 (stereo unspecified)
middle level

Class (by measured normalised cell number) for Cc1ccc(C)c(OCCCC(C)(C)C(=O)O)c1
lower level

Class (by measured normalised cell number) for Cn1cnc([N+](=O)[O-])c1Sc1ncnc2nc[nH]c12
upper level

Class (by measured normalised cell number) for COc1cc2nc(N(C)CCCNC(=O)C3CCCO3)nc(N)c2cc1OC (stereo unspecified)
upper level
